# Tested on: TNF-a formation from RAW 264.7 cells stimulated with LPS
# STATED_CONDITIONS: at the highest concentration; RAW 264.7, LPS
RECORDED_METRIC: % of inhibition of TNF-a formation (in parentheses) (%)

MOLECULE: C=C(C)C1CCC2(C)C(C(=O)C=C3C4CC(C)(C(=O)O)CCC4(C)CCC32C)C1(C)CCC(=O)OC(C)C (stereo not shown)
ASSAYED_SYSTEM: TNF-a formation from RAW 264.7 cells stimulated with LPS
NUMERIC_READOUT: 38.4
--
MOLECULE: C=C(C)C1CCC2(C)C(C(=O)C=C3C4CC(C)(C(=O)OC(C)C)CCC4(C)CCC32C)C1(C)CCC(=O)OC (stereo not shown)
ASSAYED_SYSTEM: TNF-a formation from RAW 264.7 cells stimulated with LPS
NUMERIC_READOUT: 47.0
--
MOLECULE: C=C(C)C1CCC2(C)C(C(=O)C=C3C4CC(C)(C(=O)O)CCC4(C)CCC32C)C1(C)CCC(=O)OC (stereo not shown)
ASSAYED_SYSTEM: TNF-a formation from RAW 264.7 cells stimulated with LPS
NUMERIC_READOUT: 21.2
--
MOLECULE: CC(C)NC(=O)C1(C)CCC2(C)CCC3(C)C(=CC(=O)C4C5(C)CCC(=O)OC(C)(C)C5CCC43C)C2C1 (stereo not shown)
ASSAYED_SYSTEM: TNF-a formation from RAW 264.7 cells stimulated with LPS
NUMERIC_READOUT: 9.7
--
MOLECULE: CC1(C(=O)O)CCC2(C)CCC3(C)C(=CC(=O)C4C5(C)CCC(=O)OC(C)(C)C5CCC43C)C2C1 (stereo not shown)
ASSAYED_SYSTEM: TNF-a formation from RAW 264.7 cells stimulated with LPS
NUMERIC_READOUT: −0.7
--
MOLECULE: CC1(C(=O)Nc2ccccc2)CCC2(C)CCC3(C)C(=CC(=O)C4C5(C)CCC(=O)OC(C)(C)C5CCC43C)C2C1 (stereo not shown)
ASSAYED_SYSTEM: TNF-a formation from RAW 264.7 cells stimulated with LPS
NUMERIC_READOUT: 45.2
--
MOLECULE: CC1(C(=O)OCc2ccccc2)CCC2(C)CCC3(C)C(=CC(=O)C4C5(C)CCC(=O)OC(C)(C)C5CCC43C)C2C1 (stereo not shown)
ASSAYED_SYSTEM: TNF-a formation from RAW 264.7 cells stimulated with LPS
NUMERIC_READOUT: 25.3

* * *

# ASSAYED_SYSTEM: xanthine oxidase (XO)
# Sequence (P47989 whole entry, species assumed): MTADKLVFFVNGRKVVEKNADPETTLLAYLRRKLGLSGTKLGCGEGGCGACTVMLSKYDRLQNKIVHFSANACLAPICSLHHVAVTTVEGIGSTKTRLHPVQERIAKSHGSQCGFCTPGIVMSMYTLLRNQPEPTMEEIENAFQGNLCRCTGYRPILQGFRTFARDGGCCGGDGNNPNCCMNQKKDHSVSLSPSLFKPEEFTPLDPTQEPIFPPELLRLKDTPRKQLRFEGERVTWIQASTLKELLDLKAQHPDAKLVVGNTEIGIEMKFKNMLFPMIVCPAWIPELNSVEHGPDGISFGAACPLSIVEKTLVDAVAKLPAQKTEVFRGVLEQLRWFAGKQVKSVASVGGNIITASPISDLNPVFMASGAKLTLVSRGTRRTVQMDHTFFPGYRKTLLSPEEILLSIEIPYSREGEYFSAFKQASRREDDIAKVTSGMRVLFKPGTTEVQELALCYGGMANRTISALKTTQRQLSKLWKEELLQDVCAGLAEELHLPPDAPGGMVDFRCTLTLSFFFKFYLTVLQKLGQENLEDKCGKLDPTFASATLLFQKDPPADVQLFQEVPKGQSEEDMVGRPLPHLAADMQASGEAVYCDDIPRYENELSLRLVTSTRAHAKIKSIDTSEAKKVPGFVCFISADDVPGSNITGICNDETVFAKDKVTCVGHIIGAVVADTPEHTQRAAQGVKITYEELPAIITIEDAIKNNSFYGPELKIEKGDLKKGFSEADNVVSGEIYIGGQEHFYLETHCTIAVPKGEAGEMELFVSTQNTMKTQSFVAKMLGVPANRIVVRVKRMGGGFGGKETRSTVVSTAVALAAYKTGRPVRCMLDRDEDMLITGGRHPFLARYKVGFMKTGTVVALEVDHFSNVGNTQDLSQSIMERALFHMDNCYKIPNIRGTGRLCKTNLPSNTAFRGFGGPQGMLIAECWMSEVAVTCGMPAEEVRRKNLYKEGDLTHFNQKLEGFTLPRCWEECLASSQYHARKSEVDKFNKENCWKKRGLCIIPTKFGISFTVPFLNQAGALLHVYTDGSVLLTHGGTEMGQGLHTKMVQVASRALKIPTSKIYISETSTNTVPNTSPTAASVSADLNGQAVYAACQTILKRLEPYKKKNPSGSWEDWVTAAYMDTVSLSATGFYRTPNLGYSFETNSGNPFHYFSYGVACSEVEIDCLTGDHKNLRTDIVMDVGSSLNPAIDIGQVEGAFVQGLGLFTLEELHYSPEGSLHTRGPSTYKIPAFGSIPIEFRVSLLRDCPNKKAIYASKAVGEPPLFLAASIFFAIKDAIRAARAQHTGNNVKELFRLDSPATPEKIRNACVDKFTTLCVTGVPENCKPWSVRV
# TEST_NAME: Xanthine oxidase activity assay
# STATED_CONDITIONS: xanthine as substrate, 25° C., 295 nm
Listed below: IC50 values for each entry.

COMPOUND: COC(=O)C1(C)CCC2(C)CCC3(C)C(=CC(=O)C4C5(C)CCC(=O)OC(C)(C)C5CCC43C)C2C1 (stereo not drawn) [Compound 6, 3,4 lactone 30 methyl ester]
IC50 [µM]: 132

COMPOUND: C=C(C)C1CCC2(C)C(C(=O)C=C3C4CC(C)(C(=O)NC(C)C)CCC4(C)CCC32C)C1(C)CCC(=O)OC (stereo not drawn) [Compound 14]
IC50 [µM]: 192

COMPOUND: C=C(C)C1CCC2(C)C(C(=O)C=C3C4CC(C)(C(=O)OCc5ccccc5)CCC4(C)CCC32C)C1(C)CCC(=O)OC (stereo not drawn) [Compound 13]
IC50 [µM]: 175
